Source of measurements: patent US20240270821A1

Target: hGLP-1R (Homo sapiens, UniProt P43220)
Sequence (P43220 24-463): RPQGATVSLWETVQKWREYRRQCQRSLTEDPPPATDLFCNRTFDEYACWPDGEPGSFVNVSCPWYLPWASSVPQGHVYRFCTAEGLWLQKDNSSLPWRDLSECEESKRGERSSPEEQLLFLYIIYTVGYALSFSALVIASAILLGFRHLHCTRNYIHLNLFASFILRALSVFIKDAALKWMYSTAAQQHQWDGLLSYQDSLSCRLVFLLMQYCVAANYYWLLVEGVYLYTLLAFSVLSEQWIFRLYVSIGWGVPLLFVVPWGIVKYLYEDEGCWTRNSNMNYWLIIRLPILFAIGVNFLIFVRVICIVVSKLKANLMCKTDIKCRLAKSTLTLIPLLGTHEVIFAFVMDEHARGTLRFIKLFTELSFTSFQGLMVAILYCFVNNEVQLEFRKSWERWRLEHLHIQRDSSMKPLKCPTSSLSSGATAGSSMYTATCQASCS
Assay: cell-based or functional assay
Starred links: 1 amine or outer side, 2 acyl side, 3 side chain; linkers in the order of their positions; H or OH if unused. Non-standard residues stand in square brackets, D forms with d. Groups on a side chain read outwards from the residue. No end group written: not given here. *: point of attachment. C20 diacid = O=C(O)CCCCCCCCCCCCCCCCCCC(=O)*; γGlu = O=C(O)[C@H](CCC(=O)[*:2])N[*:1]; αMeL = CC(C)C[C@](C)(N)C(=O)O; AEEA = NCCOCCOCC(=O)O; Aib = CC(C)(N)C(=O)O

{"columns": ["binder", "result_unit", "Relative cAMP EC50"],
 "data": [
  ["YXQGTFTSDFSRXLDKKAQXAFIEYLIEXGESSGAPPPSGS (non-natural residues, AEEA-γGlu-C18 diacid acyl on K, C-terminal amide; synthetic construct; SITE 2: note = 2-Aminoisobutyric Acid; SITE 13: note = alpha-methyl-leucine; SITE 17: note = Lysine is chemically modified through conjugation of the epsilon-amino group of the Lysine side chain with (2-[2-(2-Amino-ethoxy)-ethoxy]-acetyl)-(gamma-Glu)-CO-(CH2) 16-CO2H; SITE 20: n) [Example 230]", "nM", 0.937],
  ["YXQGTFTSDXSRXLDKKAQXAFIEYLIAGGESSGAPPPSGSEE (synthetic construct; SITE 2: note = 2-Aminoisobutyric Acid; SITE 10: note = 3-(4-Pyridyl)-L-alanine; SITE 13: note = alpha-methyl-leucine; SITE 17: note = Lysine is chemically modified through conjugation of the epsilon-amino group of the Lysine side chain with (gamma-Glu)2-CO-(CH2)16-CO2H; SITE 20:) [Example 965]", "nM", 1.39],
  ["Y[Aib]QGTFTSDYSI[αMeL]LDKQAAK([AEEA-AEEA-γGlu-C20 diacid])QFVEWLLA[Aib]GPSSGAPPPSEG-NH2 [Example 327]", "nM", 1.61],
  ["YXQGTXTSDXXIXLDXKAAXEFIEXLIEGGPSSGAPPPSGEE (synthetic construct; SITE 2: note = 2-Aminoisobutyric Acid; SITE 6: note = alpha-methyl-2-fluoro-L-phenylalanine; SITE 10: note = 3-(4-Pyridyl)-L-alanine; SITE 11: note = alpha-methyl-L-serine; SITE 13: note = alpha-methyl-leucine; SITE 16: note = L-ornithine; SITE 17: note = Lysine is chemically mo) [Example 703]", "nM", 0.233]
]}
